assayTarget: T1, native human ApoC3 (human, UniProt P02656 21-99, biotinylated in the captured-antigen assays (Tables 6 and 8); sites not stated)
T1 construct: also called nhuApoC3; native huApoC3
T1 sequence (P02656 21-99): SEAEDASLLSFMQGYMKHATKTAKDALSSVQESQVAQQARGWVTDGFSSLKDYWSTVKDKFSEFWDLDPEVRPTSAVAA
measurementNotes: SPR, biotinylated antigen captured on SA chip, scFv periplasmic extract injected, pH 7.4
experimentalEndpoint: koff (s⁻¹)
Field: numeric (s⁻¹). Do not append units.

So for 29A05 scFv (scFv, part only; not given: scFv linker, domain order, c-myc tag, V domains shown, not shown: another chain or arm of the molecule; small tags and cut ends) VH: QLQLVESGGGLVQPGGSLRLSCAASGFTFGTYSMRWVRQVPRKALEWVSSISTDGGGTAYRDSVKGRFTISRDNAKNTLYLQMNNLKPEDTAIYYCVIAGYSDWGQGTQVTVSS VL: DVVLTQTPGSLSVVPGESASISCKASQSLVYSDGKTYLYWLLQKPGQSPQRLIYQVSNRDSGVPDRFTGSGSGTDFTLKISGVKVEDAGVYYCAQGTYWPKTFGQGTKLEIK , the logged koff turned out to be 0.0069

So for 30D10 scFv (scFv, part only; not given: scFv linker, domain order, c-myc tag, V domains shown, not shown: another chain or arm of the molecule; small tags and cut ends) VH: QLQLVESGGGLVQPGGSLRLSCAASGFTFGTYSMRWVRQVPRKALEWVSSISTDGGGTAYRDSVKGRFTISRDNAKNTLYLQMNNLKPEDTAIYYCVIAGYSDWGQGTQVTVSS VL: DVVLTQTPGSLSVVPGESASISCTASQSLRHSDGRTYLYWLRQKPGQSPQRLIKRVSTRDPGVPDRFTGSGSGTDFTLKISGVRAEDAGVYYCAQGTYYPLTFGQGTKVELK , the logged koff turned out to be 0.00123
